# IC50 values compiled below
- subject of test: PTP1B (Homo sapiens, UniProt P18031)
- test name: PTP1B enzyme inhibition
- Format: biochemical
- details: pIC50, soluble 322 amino acids PTP1B
Provide the reading as a plain figure in nM.

## Task Give its IC50 value. Item: Cc1nc2ccccc2n2ccnc12 [Compound 2, 4‐Methylimidazo[1,2‐a]quinoxaline]
## Result 468

## Task Give its IC50 value. Item: CC1Nc2ccccc2-n2nnnc21 (centres unmarked)
## Result 2190

## Task Give its IC50 value. Item: Cc1nc2ccccc2n2nnnc12 [Compound 4, 4‐Methyltetrazolo[1,5‐a]quinoxaline]
## Result 1510

Continuing:
## Task Give its IC50 value. Item: Cc1nc2ccccc2n2cnnc12
## Result 794

## Task Give its IC50 value. Item: c1ccc2c(c1)ncc1nnnn12 [Compound 9, Tetrazolo[1,5‐a]quinoxaline]
## Result 631

----------
# inhibition at 1 µM values compiled below
- subject of test: PTP1B (Homo sapiens, UniProt P18031)
- Sequence (P18031 1-322 limits assumed): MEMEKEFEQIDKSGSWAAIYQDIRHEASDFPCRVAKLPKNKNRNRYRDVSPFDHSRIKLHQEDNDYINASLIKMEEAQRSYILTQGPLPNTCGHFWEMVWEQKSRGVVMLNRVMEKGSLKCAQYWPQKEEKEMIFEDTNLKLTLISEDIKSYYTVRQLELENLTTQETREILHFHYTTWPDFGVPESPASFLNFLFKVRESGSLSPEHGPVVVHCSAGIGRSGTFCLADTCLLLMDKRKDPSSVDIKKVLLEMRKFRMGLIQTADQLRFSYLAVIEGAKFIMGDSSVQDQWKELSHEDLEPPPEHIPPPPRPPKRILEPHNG
- test name: PTP1B enzyme inhibition
- Type: biochemical
- details: read-out: % Inhib. PTP1B @ 1 μM
Express your answer as a number followed by its unit.

Example results:
## Task Give its inhibition at 1 µM value. Item: Cc1nc2ccccc2n2cccc12 [Compound 1, 4‐methylpyrrolo[1,2‐a]quinoxaline]
## Result 51%

## Task Give its inhibition at 1 µM value. Item: Cc1nc2ccccc2n2ccnc12 [Compound 2, 4‐Methylimidazo[1,2‐a]quinoxaline]
## Result 87%

## Task Give its inhibition at 1 µM value. Item: Cc1nc2ccccc2n2nnnc12 [Compound 4, 4‐Methyltetrazolo[1,5‐a]quinoxaline]
## Result 46%

Continuing:
## Task Give its inhibition at 1 µM value. Item: Cc1nc2ccccc2n2cnnc12
## Result 70%

## Task Give its inhibition at 1 µM value. Item: CC1Nc2ccccc2-n2nnnc21 (stereo not drawn)
## Result 37%

## Task Give its inhibition at 1 µM value. Item: c1ccc2c(c1)ncc1nnnn12 [Compound 9, Tetrazolo[1,5‐a]quinoxaline]
## Result 80%

----------
# SI (selectivity index, percentage inhibition ratio PTP1B/TCPTP at 1 μM) values compiled below
- subject of test: UniProt:P18031
- test name: PTP1B enzyme inhibition
- Type: biochemical
- details: 1 μM, PTP1B/TCPTP
API note: the answer field is a bare number with no unit suffix.

## Task Give its SI (selectivity index, percentage inhibition ratio PTP1B/TCPTP at 1 μM) value. Item: Cc1nc2ccccc2n2ccnc12 [Compound 2, 4‐Methylimidazo[1,2‐a]quinoxaline]
## Result 1.97

## Task Give its SI (selectivity index, percentage inhibition ratio PTP1B/TCPTP at 1 μM) value. Item: Cc1nc2ccccc2n2cccc12 [Compound 1, 4‐methylpyrrolo[1,2‐a]quinoxaline]
## Result 0.94

## Task Give its SI (selectivity index, percentage inhibition ratio PTP1B/TCPTP at 1 μM) value. Item: Cc1nc2ccccc2n2cnnc12
## Result 1.27

Next molecule, SI (selectivity index, percentage inhibition ratio PTP1B/TCPTP at 1 μM) to be filled in.
## Task Give its SI (selectivity index, percentage inhibition ratio PTP1B/TCPTP at 1 μM) value. Item: c1ccc2c(c1)ncc1nnnn12 [Compound 9, Tetrazolo[1,5‐a]quinoxaline]
## Result 1.17

----------
- subject of test: TCPTP (Homo sapiens)
- Sequence (P17706 1-341 limits assumed): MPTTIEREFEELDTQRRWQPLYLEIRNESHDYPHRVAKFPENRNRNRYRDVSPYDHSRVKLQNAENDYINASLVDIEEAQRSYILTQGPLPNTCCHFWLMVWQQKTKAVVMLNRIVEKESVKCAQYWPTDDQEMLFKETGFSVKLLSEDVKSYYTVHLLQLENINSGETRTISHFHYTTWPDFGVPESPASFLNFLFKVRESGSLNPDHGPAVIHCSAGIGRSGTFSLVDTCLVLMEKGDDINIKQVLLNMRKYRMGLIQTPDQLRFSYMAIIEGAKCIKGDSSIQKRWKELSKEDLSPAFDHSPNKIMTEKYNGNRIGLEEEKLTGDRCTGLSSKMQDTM
- test name: TCPTP enzyme inhibition
- Format: biochemical
- details: read-out: % Inhib. TCPTP @ 1 μM
# inhibition at 1 µM values compiled below

Example results:
## Task Give its inhibition at 1 µM value. Item: c1ccc2c(c1)ncc1nnnn12 [Compound 9, Tetrazolo[1,5‐a]quinoxaline]
## Result 68%

## Task Give its inhibition at 1 µM value. Item: Cc1nc2ccccc2n2ccnc12 [Compound 2, 4‐Methylimidazo[1,2‐a]quinoxaline]
## Result 44%

## Task Give its inhibition at 1 µM value. Item: Cc1nc2ccccc2n2cnnc12 [Compound 3]
## Result 55%

## Task Give its inhibition at 1 µM value. Item: Cc1nc2ccccc2n2nnnc12 [Compound 4, 4‐Methyltetrazolo[1,5‐a]quinoxaline]
## Result 50%

## Task Give its inhibition at 1 µM value. Item: CC1Nc2ccccc2-n2nnnc21 (stereo not drawn) [Compound 10]
## Result 35%

Continuing:
## Task Give its inhibition at 1 µM value. Item: Cc1nc2ccccc2n2cccc12 [Compound 1, 4‐methylpyrrolo[1,2‐a]quinoxaline]
## Result 54%

This collection of values is drawn from paper PMC8518816.
